Tested on: Human immunodeficiency virus type 1 reverse transcriptase (Human immunodeficiency virus 1), Q72547 [P236L]
protocol_details: In vitro inhibition of mutant P236L reverse transcriptase at a concentration of 10 uM.
test_readout: inhibition

Consider the reported inhibition for these compounds:
[
  {
    "smiles_text": "CCCc1c(C)nn(-c2ccccc2)c1-c1ccccc1",
    "inhibition": "56%"
  },
  {
    "smiles_text": "CCc1c(CC#N)nn(-c2ccccc2)c1-c1ccccc1",
    "inhibition": "46%"
  },
  {
    "smiles_text": "Cc1nn(-c2ccccc2)c(-c2ccccc2)c1C(=O)O",
    "inhibition": "1%"
  },
  {
    "smiles_text": "CNC(=O)c1c(C)nn(-c2ccccc2)c1-c1ccccc1",
    "inhibition": "0%"
  }
]

The value of inhibition measured for the compound CC#Cc1c(C)nn(-c2ccccc2)c1-c1ccccc1 turned out to be 80%

Notebook: C=Cc1c(C)nn(-c2ccccc2)c1-c1ccccc1 , inhibition read as 26%

Sure, the documented inhibition for Cc1nn(-c2ccccc2)c(-c2ccccc2)c1CCO is 8%

Record CCc1c(CC(=O)OC)nn(-c2ccccc2)c1-c1ccccc1 . Reported inhibition: 41%

Recorded inhibition (compound CCc1c(CC(N)=O)nn(-c2ccccc2)c1-c1ccccc1 ): 29%

Measured inhibition of Cc1nn(-c2ccccc2)c(-c2ccccc2)c1C : 3%

response.value for Cc1nn(-c2ccccc2)c(-c2ccccc2)c1C(C)C (field: inhibition) = 8%

Sample CCc1c(CC(=O)O)nn(-c2ccccc2)c1-c1ccccc1 ; inhibition observed: 13%

###

measurement_target: UniProt Q72547
protocol_details: In vitro inhibition of wild type resistant reverse transcriptase at a concentration of 50 uM.
// reported inhibition per item
Output spec: scalar in %, unitless text.

Study these solved cases before continuing.
[
  {
    "smiles_text": "CCc1c(CC(=O)NC)nn(-c2ccccc2)c1-c1ccccc1",
    "test_readout": "inhibition",
    "observed": 7
  },
  {
    "smiles_text": "Cc1nn(-c2ccccc2)c(-c2ccccc2)c1C",
    "test_readout": "inhibition",
    "observed": 0
  },
  {
    "smiles_text": "Cc1nn(-c2ccccc2)c(-c2ccccc2)c1C(C)C",
    "test_readout": "inhibition",
    "observed": 6
  },
  {
    "smiles_text": "Cc1nn(-c2ccccc2)c(-c2ccccc2)c1CCO",
    "test_readout": "inhibition",
    "observed": 0
  },
  {
    "smiles_text": "CC#Cc1c(C)nn(-c2ccccc2)c1-c1ccccc1",
    "test_readout": "inhibition",
    "observed": 72
  },
  {
    "smiles_text": "Cc1nn(-c2ccccc2)c(-c2ccccc2)c1CC(=O)O",
    "test_readout": "inhibition",
    "observed": 3
  },
  {
    "smiles_text": "CCc1c(CC(N)=O)nn(-c2ccccc2)c1-c1ccccc1",
    "test_readout": "inhibition",
    "observed": 39
  },
  {
    "smiles_text": "Cc1nn(-c2ccccc2)c(-c2ccccc2)c1C(=O)O",
    "test_readout": "inhibition",
    "observed": 1
  }
]

Measured inhibition, COCc1c(C)nn(-c2ccccc2)c1-c1ccccc1 : 14

Value of inhibition reported for the compound C/N=C(/S)c1c(C)nn(-c2ccccc2)c1-c1ccccc1 is 0
